Known pIC50 of a selection of compounds
molecular target: human TLR8 (Homo sapiens, UniProt Q9NR97); test: TLR8 inhibition reporter assay (HEK-Blue cells, SEAP reporter, R848 stimulation); settings: HEK-Blue cells overexpressing human TLR8, SEAP reporter, R848 15.9 μM
Sequence (Q9NR97 27-1041): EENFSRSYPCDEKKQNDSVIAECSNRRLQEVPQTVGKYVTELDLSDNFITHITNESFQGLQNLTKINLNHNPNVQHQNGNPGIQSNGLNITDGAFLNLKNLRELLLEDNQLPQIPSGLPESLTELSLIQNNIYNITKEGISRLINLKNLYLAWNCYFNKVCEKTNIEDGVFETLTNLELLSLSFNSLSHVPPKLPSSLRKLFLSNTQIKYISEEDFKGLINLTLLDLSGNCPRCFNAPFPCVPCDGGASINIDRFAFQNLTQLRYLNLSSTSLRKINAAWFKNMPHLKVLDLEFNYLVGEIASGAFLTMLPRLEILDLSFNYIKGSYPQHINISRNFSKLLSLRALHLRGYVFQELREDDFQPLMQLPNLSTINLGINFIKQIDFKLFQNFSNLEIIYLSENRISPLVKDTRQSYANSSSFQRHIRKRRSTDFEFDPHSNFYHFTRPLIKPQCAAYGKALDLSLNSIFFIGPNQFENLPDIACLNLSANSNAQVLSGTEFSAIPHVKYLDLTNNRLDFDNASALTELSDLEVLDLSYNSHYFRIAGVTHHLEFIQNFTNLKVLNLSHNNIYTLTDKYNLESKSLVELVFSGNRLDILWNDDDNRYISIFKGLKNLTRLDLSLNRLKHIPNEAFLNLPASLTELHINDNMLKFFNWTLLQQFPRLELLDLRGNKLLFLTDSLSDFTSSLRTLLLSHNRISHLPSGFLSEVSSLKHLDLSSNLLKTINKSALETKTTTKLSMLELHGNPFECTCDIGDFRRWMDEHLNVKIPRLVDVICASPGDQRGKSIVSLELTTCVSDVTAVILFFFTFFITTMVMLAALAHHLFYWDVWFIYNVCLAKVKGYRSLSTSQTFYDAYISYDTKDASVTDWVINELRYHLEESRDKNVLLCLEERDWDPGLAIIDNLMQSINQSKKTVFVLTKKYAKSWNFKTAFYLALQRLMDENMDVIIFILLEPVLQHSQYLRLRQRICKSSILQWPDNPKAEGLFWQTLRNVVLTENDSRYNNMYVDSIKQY
pIC50: −log10 of the molar value.

Consider the following illustrative entries.
> print(dat)
                                    compound                               assaysystem        result
 1  Cc1ccc(-c2[nH]c3ccc(C4CCNCC4)cc3c2C(C)C)c2ncnn12  human TLR8 (Homo sapiens, UniProt Q9NR97)        > 7.00
 2  CC(C)c1c(-c2ccnc3[nH]ncc23)[nH]c2ccc(C3CCN(C(=O)CCN(C)C)CC3)cc12  human TLR8 (Homo sapiens, UniProt Q9NR97)        > 7.00
 3  CC(C)c1c(-c2cnc3cn[nH]c3c2)[nH]c2ccc(C3CCN(C(=O)CN(C)C)CC3)cc12  human TLR8 (Homo sapiens, UniProt Q9NR97)        > 7.00
 4  CC(C)c1c(-c2ccn3nncc3c2)[nH]c2ccc(C3CCN(C4CCOCC4)CC3)cc12 [Example 701]  human TLR8 (Homo sapiens, UniProt Q9NR97)        > 7.00
 5  Cc1cc(-c2[nH]c3ccc(C4CCNCC4)cc3c2C(C)C)c2ccccc2n1  human TLR8 (Homo sapiens, UniProt Q9NR97)        > 7.00
 6  CNC(=O)CN1CCC(c2ccc3[nH]c(-c4cc(C(C)(C)O)c5nccn5c4)c(C(C)C)c3c2)CC1  human TLR8 (Homo sapiens, UniProt Q9NR97)  6.00 to 7.00
 7  Cc1cc2nnnn2cc1-c1[nH]c2ccc(C3CCN(CCS(C)(=O)=O)CC3)cc2c1C(C)C  human TLR8 (Homo sapiens, UniProt Q9NR97)        > 7.00
 8  CNC(=O)CN1CCC(c2ccc3[nH]c(-c4cc(C)n5nncc5c4)c(C(C)C)c3c2)CC1  human TLR8 (Homo sapiens, UniProt Q9NR97)        > 7.00
 9  CNC(=O)CN1CCC(c2ccc3[nH]c(-c4cc(C)c5nccn5n4)c(C(C)C)c3c2)CC1  human TLR8 (Homo sapiens, UniProt Q9NR97)        > 7.00
10  CC(C)c1c(-c2ccc3nccn3c2)[nH]c2ccc(C3CCN(CC(=O)NCC(F)(F)F)CC3)cc12  human TLR8 (Homo sapiens, UniProt Q9NR97)  6.00 to 7.00

Returns the measured pIC50 for the input compound. Input: CC(C)c1c(-c2ccnc3[nH]ncc23)[nH]c2ccc(C3CCNCC3F)cc12 (stereo not shown) [Example 172] > 7.00

Returns the measured pIC50 for the input compound. Input: Cc1cc(-c2[nH]c3ccc(C4CCN(CCCS(C)(=O)=O)CC4)cc3c2C(C)C)cn2nnnc12 > 7.00

Returns the measured pIC50 for the input compound. Input: Cc1cc(-c2[nH]c3ccc(C4CCN(C(=O)CN(C)C)CC4)cc3c2C(C)C)cc2[nH]c(=O)oc12 6.00 to 7.00

Returns the measured pIC50 for the input compound. Input: COc1cc(-c2[nH]c3ccc(C4CCN(C5COC5)CC4)cc3c2C(C)C)cn2ccnc12 > 7.00

Returns the measured pIC50 for the input compound. Input: Cc1cnc2ccc(-c3[nH]c4ccc(C5CCN(C(=O)CN(C)C)CC5)cc4c3C(C)C)cn12 6.00 to 7.00

Returns the measured pIC50 for the input compound. Input: OCc1c(-c2ccnc3[nH]ncc23)[nH]c2ccc(C3CCNCC3)cc12 4.30 to 6.00
